Measured Plant response rating, Kochia of individual entries
- Test system: kochia (Kochia scoparia)
- run.description: Test A greenhouse herbicide test, pre- and postemergence
- Type: in vivo
- experimental.conditions: Postemergence, 125 g ai/ha; 0 to 100 scale where 0 is no effect and 100 is complete control

Query: Plant response rating, Kochia; subject: C#Cc1ccc2cccc(-c3c(O)c(C)nn(C)c3=O)c2c1 [Compound 150]
40

Query: Plant response rating, Kochia; subject: CC(=O)Oc1c(C)nn(C)c(=O)c1-c1c(C)sc2cc(C)cc(C)c12 [Compound 44]
0

Query: Plant response rating, Kochia; subject: Cc1nn(C)c(=O)c(-c2cccc3ccc(C#N)cc23)c1O [Compound 127]
70

Query: Plant response rating, Kochia; subject: COc1nn(C)c(=O)c(-c2c(C)sc3ccc(Cl)cc23)c1OS(C)(=O)=O [Compound 135]
0

Query: Plant response rating, Kochia; subject: CC(=O)Oc1c(C)nn(C)c(=O)c1-c1ccc(F)c2ccccc12 [Compound 90]
100

Query: Plant response rating, Kochia; subject: COC(=O)Oc1c(C)nn(C)c(=O)c1-c1c(C)sc2c(C)cc(C)cc12 [Compound 81]
60

Query: Plant response rating, Kochia; subject: CCC(=O)Oc1c(C)nn(C)c(=O)c1-c1c(C)sc2ccc(C)cc12 [Compound 42]
100

Query: Plant response rating, Kochia; subject: COC(=O)Oc1c(Cl)nn(C)c(=O)c1-c1c(C)sc2ccc(Cl)cc12 [Compound 101]
20

Query: Plant response rating, Kochia; subject: CCC(=O)Oc1c(C)nn(C)c(=O)c1-c1c(C(F)(F)F)ccc2ccccc12 [Compound 147]
80

---

- System: ryegrass, Italian (Italian ryegrass, Lolium multiflorum)
- run.description: Test C greenhouse herbicide test, pre- and postemergence
- Assay type: in vivo
- experimental.conditions: postemergence, 62 g ai/ha; scale 0 to 100, 0 no effect, 100 complete control
readout: Ryegrass, Italian plant response rating
Respond numerically, and do not add a unit to the figure.

Query: Ryegrass, Italian plant response rating; subject: COc1nn(C)c(=O)c(-c2c(C)sc3ccccc23)c1O [Compound 33]
45

New cases:
Query: Ryegrass, Italian plant response rating; subject: CC(=O)Oc1c(C)nn(C)c(=O)c1-c1c(C)sc2ccc(C)cc12 [Compound 25]
85

Query: Ryegrass, Italian plant response rating; subject: CC(=O)Oc1c(C)nn(C)c(=O)c1-c1ccc(F)c2ccccc12 [Compound 90]
90

Query: Ryegrass, Italian plant response rating; subject: C#CCOC(=O)Oc1c(C)nn(C)c(=O)c1-c1c(C)sc2ccc(C)cc12 [Compound 87]
80

Query: Ryegrass, Italian plant response rating; subject: COc1nn(C)c(=O)c(-c2c(C)sc3ccc(Cl)cc23)c1O [Compound 100]
90

Query: Ryegrass, Italian plant response rating; subject: CCOC(=O)Oc1c(C)nn(C)c(=O)c1-c1c(CC)ccc2ccccc12 [Compound 37]
85

---

Measured Plant response rating, Dayflower, VA of individual entries
- Test system: dayflower (Virginia (VA) dayflower, Commelina virginica)
- run.description: Test E greenhouse herbicide test, pre- and postemergence
- Assay type: in vivo
- experimental.conditions: 62 g ai/ha, Postemergence; scale 0 to 100 (0 no effect, 100 complete control)
Respond numerically, and do not add a unit to the figure.

Query: Plant response rating, Dayflower, VA; subject: COC(=O)Oc1c(C)nn(C)c(=O)c1-c1c(C)sc2c(C)cc(C)cc12 [Compound 81]
70

Query: Plant response rating, Dayflower, VA; subject: CC(=O)Oc1c(C)nn(C)c(=O)c1-c1c(C)sc2ccc(C)cc12 [Compound 25]
40

Query: Plant response rating, Dayflower, VA; subject: CSCC(=O)Oc1c(C)nn(C)c(=O)c1-c1cccc2ccccc12 [Compound 171]
50

Query: Plant response rating, Dayflower, VA; subject: COc1nn(C)c(=O)c(-c2c(C)sc3ccc(Cl)cc23)c1O [Compound 100]
0
